# Tested on: HT29 colon
# test details: NCI tumour cell line growth inhibition, 48 h
Where a SMILES comes first, the peptide text is derived from it. [ ]: non-standard residue; d: D form. The star is where a group is joined. ξ: configuration not given here. NMeF = CN[C@@H](Cc1ccccc1)C(=O)O; NMeV = CN[C@H](C(=O)O)C(C)C; ξNMeN = CNC(CC(N)=O)C(=O)O; NMeA = CN[C@@H](C)C(=O)O; ξNMeV = CNC(C(=O)O)C(C)C; Boc = CC(C)(C)OC(=O)*
Item-by-item account of GI50

molecule	GI50
COc1ccc(C(=O)c2sc3nc4c(cc3c2N)CCCC4)cc1OC	3.08 µM
Cc1nc2cc(-c3nn(C(C)C)c4ncnc(N)c34)ccc2o1	0.0208 µM
COc1cc(C2CC(c3cccc(Nc4ccncc4)c3)=NN2c2ccccc2)cc(OC)c1OC (centres undefined)	1.93 µM
O=c1ccccc(-c2ccc(Br)cc2)c1O	6.44 µM
COc1ccc(/C=C/C2C(C#N)=C(N)OC3=C2C(=O)CCC3)cc1 (centres undefined)	7.9 µM
COc1ccc2c(c1OC)-c1c(c3ccc([N+](=O)[O-])cc3c(=O)n1CCCN)C2=O	1.6 µM
N/C(=N\N=C/c1c2ccccc2c(Cl)c2ccccc12)NO	2.84 µM
Nc1c(C(=O)Nc2cccc(C(F)(F)F)c2)sc2nc3c(cc12)C(O)CCC3 (centres undefined)	3.35 µM
COC(=O)[C@H](C)N(C)C(=O)C(CC(N)=O)N(C)C(=O)[C@H](Cc1ccccc1)N(C)C(=O)[C@@H]1CCCN1C(=O)[C@H](C(C)C)N(C)C(=O)C(C(C)C)N(C)C(=O)[C@@H](NC(=O)OC(C)(C)C)C(C)C (some centres undefined) (Boc-V[ξNMeV][NMeV]P[NMeF][ξNMeN][NMeA]-OMe)	27.2 µM

----------
# Test system: HOP-18 NSCLC
# test details: NCI tumour cell line growth inhibition, 48 h

compound	system	TGI
COc1ccc(/C=N/N/C(O)=c2/sc(=C(C#N)C#N)n(-c3ccccc3)c2=N)cc1	HOP-18 NSCLC	> 100 µM
CN(C)CC/C(=N\Nc1ccc(Cl)cc1)c1ccccc1	HOP-18 NSCLC	7.78 µM
CCOc1ccc(NC(=O)/C(=C\c2ccc(C)cc2)C(C)=O)cc1	HOP-18 NSCLC	> 100 µM
CC1OC(n2cc(Cl)c(=O)[nH]c2=O)C=C(OC(=O)c2ccccc2)C1=O (stereo unspecified)	HOP-18 NSCLC	> 100 µM
Cn1nc(-c2cccc(-c3nn(C)c(=NCCO)s3)n2)sc1=NCCO	HOP-18 NSCLC	> 100 µM
CSc1nc(NC2OC(COC(C)=O)C(OC(C)=O)C(OC(C)=O)C2OC(C)=O)c(N=CC=Nc2c(NC3OC(COC(C)=O)C(OC(C)=O)C(OC(C)=O)C3OC(C)=O)nc(SC)[nH]c2=O)c(=O)[nH]1 (stereo unspecified)	HOP-18 NSCLC	> 100 µM
CCOC(OC1=C(C#N)CCC1)C(C)[Se]c1ccccc1 (stereo unspecified)	HOP-18 NSCLC	55.3 µM
COC[C@@H]1[C@H]2OC(C)(C)O[C@H]2C(=O)N1C(=O)c1ccc(OC)cc1	HOP-18 NSCLC	> 100 µM
O=C(CN1CCN(c2cccc(Cl)c2)CC1)N1CCc2c([nH]c3ccccc23)C1c1cccnc1 (stereo unspecified)	HOP-18 NSCLC	97.8 µM
C[CH2][Sn]([CH2]C)([O]C(=O)c1c(F)cccc1F)[O][Sn]([CH2]C)([CH2]C)[O]C(=O)c1c(F)cccc1F	HOP-18 NSCLC	37.1 µM
COc1ccc(-c2nc(Sc3c([N+](=O)[O-])ncn3C)n[nH]2)cc1	HOP-18 NSCLC	5.53 µM
CC(=O)N/C=C/c1cc(O)ccc1O	HOP-18 NSCLC	35.2 µM
O=C(c1ccccc1)c1ccc2cccc(OC3OC(CO)C(O)C(O)C3O)c2n1 (stereo unspecified)	HOP-18 NSCLC	> 100 µM
CCCCCCCCCCCCCC(=O)NCO	HOP-18 NSCLC	> 100 µM
Cc1csc2nc(-c3ccncc3)cn12	HOP-18 NSCLC	> 100 µM
CN1CCCC2[C@@H]3CCC4=C(O)C(=O)CC[C@]4(C)C3CC[C@@]21C (stereo partly specified)	HOP-18 NSCLC	> 100 µM
